B1: POU domain, class 3, transcription factor 1, residues 247 to 324; numbered along this chain, Q03052 (parent)
chain: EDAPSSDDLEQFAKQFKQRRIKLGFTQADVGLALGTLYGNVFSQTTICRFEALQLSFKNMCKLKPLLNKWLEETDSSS

# Variants of: B1
# Assay Summary: abundance fitness (aPCA) (normalised: wild type 0, dead -1); higher = more abundant; growth selection in yeast, the domain comes from the species named
# Cond: Homo sapiens
Returns one of Condition met or Condition not met; Condition met when abundance fitness is >= -0.3.

[
  {
    "Changes": "Q44L",
    "Category Label": "Condition not met"
  },
  {
    "Changes": "C48Q",
    "Category Label": "Condition met"
  },
  {
    "Changes": "W70S",
    "Category Label": "Condition not met"
  },
  {
    "Changes": "A52H",
    "Category Label": "Condition met"
  },
  {
    "Changes": "G31V",
    "Category Label": "Condition met"
  },
  {
    "Changes": "W70R",
    "Category Label": "Condition not met"
  },
  {
    "Changes": "S77M",
    "Category Label": "Condition met"
  },
  {
    "Changes": "L34R",
    "Category Label": "Condition not met"
  },
  {
    "Changes": "N59K",
    "Category Label": "Condition met"
  },
  {
    "Changes": "Q27M",
    "Category Label": "Condition met"
  },
  {
    "Changes": "T45Q",
    "Category Label": "Condition met"
  },
  {
    "Changes": "K58M",
    "Category Label": "Condition met"
  },
  {
    "Changes": "Q54L",
    "Category Label": "Condition not met"
  },
  {
    "Changes": "E72G",
    "Category Label": "Condition not met"
  },
  {
    "Changes": "T26W",
    "Category Label": "Condition not met"
  },
  {
    "Changes": "G39S",
    "Category Label": "Condition met"
  },
  {
    "Changes": "K69E",
    "Category Label": "Condition not met"
  },
  {
    "Changes": "A28N",
    "Category Label": "Condition met"
  },
  {
    "Changes": "K22L",
    "Category Label": "Condition met"
  },
  {
    "Changes": "S77I",
    "Category Label": "Condition met"
  },
  {
    "Changes": "Q54V",
    "Category Label": "Condition not met"
  }
]

Value source: the Human Domainome abundance scans (Beltran et al. 2025)
